System: VDR:RXRa (NR concentration 270 nM, RXRa partner concentration 90 nM)
testSummary: PBM binding z-score (relative to random genomic background probes); higher = stronger binding; sequences stand for … in GC…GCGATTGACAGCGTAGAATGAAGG
Listed here: items and their measured PBM binding z-score.
Respond with the number and no other words.

Guide cases for PBM binding z-score, answers given:
>  <sequenceRecord>
CAAACTAGGTCAACGGAAGGTCAAAGTCCGCATG

>  <resultNumber>
5.56

$$$$
>  <sequenceRecord>
CAAACTAGGGCACAGAGGTCAAAGTCCGTGCGTA

>  <resultNumber>
6.64

$$$$
>  <sequenceRecord>
CGTCAAAGTGCAACTAAGGTAACGTAAAGCACGC

>  <resultNumber>
0.866

$$$$
>  <sequenceRecord>
GCTAGTTGGTCCGTAAAAGGTCACACACCGGTCG

>  <resultNumber>
3.97

$$$$
>  <sequenceRecord>
AGAACGAGGGCACGCTGAGTTGACAGCAGAGTAG

>  <resultNumber>
2.32

$$$$

[ask] I am curious: what PBM binding z-score value has been reported for ATCTCTAGGTAAAGTTCAGGGAAAGATCGATAGA ?
[reply] 1.73

[ask] Further, for CCCGAAAGGTCGTGCTCAGGTGAGTATACCAAAC ?
[reply] 3.47

[ask] Further, for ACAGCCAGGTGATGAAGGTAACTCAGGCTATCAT ?
[reply] -0.126

[ask] Further, for GCTCCTAGGTCAGGTTGGTCAGCTAACGGGTACG ?
[reply] 0.913
